target_of_assay: CXCR4 (Homo sapiens)
Construct: a human T cell strain in which CXCR4 is known to be expressed; endogenous in cells
Sequence (P61073 whole entry): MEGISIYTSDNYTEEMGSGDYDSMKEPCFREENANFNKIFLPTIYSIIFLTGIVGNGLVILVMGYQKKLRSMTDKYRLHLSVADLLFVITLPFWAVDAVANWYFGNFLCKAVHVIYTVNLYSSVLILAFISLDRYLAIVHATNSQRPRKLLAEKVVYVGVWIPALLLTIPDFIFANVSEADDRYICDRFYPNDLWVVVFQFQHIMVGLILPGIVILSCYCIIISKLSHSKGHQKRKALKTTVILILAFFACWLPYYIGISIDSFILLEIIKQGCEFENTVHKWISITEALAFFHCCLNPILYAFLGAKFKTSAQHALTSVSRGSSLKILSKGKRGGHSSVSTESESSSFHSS
experiment_description: Inhibition of binding of human 125I-SDF-1 to CEM cells
applied_conditions: 125I-SDF-1, human T cell strain CEM cells, 4° C., 60 minutes
parameter: pIC50
Note: pIC50 values are expressed as the negative base-10 logarithm of concentration in M.

Request: Can you share its pIC50? I mean this compound: Cc1ccsc1CN1CCC2(CC1)CCN(Cc1ccc(C(=O)C(Cc3ncc[nH]3)Cc3ncc[nH]3)cc1)C2 [compound 14]
Result: 7.96

Source: patent US8871210B2
